Where do the numbers come from? From ChEMBL document CHEMBL3045220.

test details: Anti-inflammatory activity assessed as inhibition of albumin denaturation incubated for 15 min at 27 degC followed by incubation at 60 degC for 10 min by UV-Vis spectrophotometric analysis
experimental endpoint: IC50 (µg/mL)
Express it in µg/mL; write the number only.

Q: Item under review: O=C(N/N=C/c1ccccc1O)c1ccc(Cl)cc1 . Reported IC50?
Ans: 95

Q: Now give it for O=C(O)Cc1ccccc1Nc1c(Cl)cccc1Cl too.
Ans: 71

Q: Now give it for COc1cc(/C=N/NC(=O)c2ccc(Cl)cc2)ccc1O too.
Ans: 160

Q: Now give it for O=C(N/N=C/c1ccc([N+](=O)[O-])cc1)c1ccccc1C(=O)c1ccccc1 too.
Ans: 17

###

Tested on: Aspergillus niger
test details: Antifungal activity against Aspergillus niger by agar well diffusion method
Type: functional
assay conditions: Aspergillus niger
Rule: MIC below 20 µg/mL gives yes. Equal to or above 20 µg/mL gives no.

[[record]]
smiles_record = "O=C(N/N=C/c1ccccc1O)c1ccc(Cl)cc1"
label_class = "yes"


Q: # TODO verify MIC < 20 µg/mL strictly for this compound: Cc1ccc(/C=N/NC(=O)c2ccc(Cl)cc2)cc1
Ans: yes

Q: Now give it for O=C(N/N=C/c1c(O)ccc2ccccc12)c1ccc(Cl)cc1 too.
Ans: no

Q: Now give it for COc1cc(/C=N/NC(=O)c2ccc(Cl)cc2)ccc1O too.
Ans: no

Q: Now give it for O=C(N/N=C/c1ccc(O)cc1)c1ccccc1C(=O)c1ccccc1 too.
Ans: no

###

// MIC lookup, one value per entry
System: Staphylococcus aureus
test details: Antibacterial activity against Staphylococcus aureus by agar well diffusion method
Type: functional
assay conditions: Staphylococcus aureus
Express it in µg/mL; write the number only.

Recorded results for 3 compounds are shown here.
[[record]]
smiles_record = "O=C(N/N=C/c1ccc(Cl)cc1)c1ccccc1C(=O)c1ccccc1"
unit_info = "µg/mL"
value_observed = 34

[[record]]
smiles_record = "O=C(N/N=C/c1ccccc1)c1ccccc1C(=O)c1ccccc1"
unit_info = "µg/mL"
value_observed = 30

[[record]]
smiles_record = "C=CC1=C(C(=O)O)N2C(=O)[C@@H](NC(=O)/C(=N\\OCC(=O)O)c3csc(N)n3)[C@H]2SC1"
unit_info = "µg/mL"
value_observed = 50


Q: Item under review: O=C(N/N=C/c1ccccc1O)c1ccccc1C(=O)c1ccccc1 . Reported MIC?
Ans: 20

Q: Now give it for Cc1ccc(/C=N/NC(=O)c2ccc(Cl)cc2)cc1 too.
Ans: 30

Q: Now give it for O=C(N/N=C/c1ccc([N+](=O)[O-])cc1)c1ccc(Cl)cc1 too.
Ans: 20

Q: Now give it for Cc1ccc(/C=N/NC(=O)c2ccccc2C(=O)c2ccccc2)cc1 too.
Ans: 34

Q: Now give it for CC1(C)S[C@@H]2[C@H](NC(=O)[C@H](N)c3ccc(O)cc3)C(=O)N2[C@H]1C(=O)O too.
Ans: 12.5

Q: Now give it for O=C(N/N=C/c1ccccc1[N+](=O)[O-])c1ccccc1C(=O)c1ccccc1 too.
Ans: 18

Q: Now give it for O=C(N/N=C/c1ccccc1O)c1ccc(Cl)cc1 too.
Ans: 18

###

// MIC lookup, one value per entry
System: Escherichia coli
test details: Antibacterial activity against Escherichia coli by agar well diffusion method
Format: functional
assay conditions: Escherichia coli
Express it in µg/mL; write the number only.

Recorded results for 4 compounds are shown here.
[[record]]
smiles_record = "O=C(N/N=C/c1ccc(O)cc1)c1ccccc1C(=O)c1ccccc1"
target_of_assay = "Escherichia coli"
unit_info = "µg/mL"
value_observed = 80

[[record]]
smiles_record = "O=C(N/N=C/c1c(O)ccc2ccccc12)c1ccc(Cl)cc1"
target_of_assay = "Escherichia coli"
unit_info = "µg/mL"
value_observed = 84

[[record]]
smiles_record = "O=C(N/N=C/c1ccc(Cl)cc1)c1ccccc1C(=O)c1ccccc1"
target_of_assay = "Escherichia coli"
unit_info = "µg/mL"
value_observed = 84

[[record]]
smiles_record = "O=C(N/N=C/c1cccc([N+](=O)[O-])c1)c1ccc(Cl)cc1"
target_of_assay = "Escherichia coli"
unit_info = "µg/mL"
value_observed = 20


Q: Write down the reported MIC of O=C(N/N=C/c1ccccc1[N+](=O)[O-])c1ccccc1C(=O)c1ccccc1 , test system: Escherichia coli.
Ans: 20

Q: Now give it for O=C(N/N=C/c1ccc([N+](=O)[O-])cc1)c1ccc(Cl)cc1 too.
Ans: 34

Q: Now give it for COc1cc(/C=N/NC(=O)c2ccc(Cl)cc2)ccc1O too.
Ans: 34

Q: Now give it for C=CC1=C(C(=O)O)N2C(=O)[C@@H](NC(=O)/C(=N\OCC(=O)O)c3csc(N)n3)[C@H]2SC1 too.
Ans: 50

Q: Now give it for O=C(N/N=C/c1ccccc1O)c1ccc(Cl)cc1 too.
Ans: 20

Q: Now give it for Cc1ccc(/C=N/NC(=O)c2ccc(Cl)cc2)cc1 too.
Ans: 184

Q: Now give it for Cc1ccc(/C=N/NC(=O)c2ccccc2C(=O)c2ccccc2)cc1 too.
Ans: 168

Q: Now give it for O=C(N/N=C/c1ccccc1O)c1ccccc1C(=O)c1ccccc1 too.
Ans: 34

Q: Now give it for CC1(C)S[C@@H]2[C@H](NC(=O)[C@H](N)c3ccc(O)cc3)C(=O)N2[C@H]1C(=O)O too.
Ans: 12.5

Q: Now give it for O=C(N/N=C/c1ccc([N+](=O)[O-])cc1)c1ccccc1C(=O)c1ccccc1 too.
Ans: 25

Q: Now give it for COc1cc(/C=N/NC(=O)c2ccccc2C(=O)c2ccccc2)ccc1O too.
Ans: 50

Q: Now give it for O=C(N/N=C/c1ccccc1)c1ccccc1C(=O)c1ccccc1 too.
Ans: 84

###

System: Aspergillus niger
test details: Antifungal activity against Aspergillus niger by agar well diffusion method
Assay type: functional
// -logMIC lookup, one value per entry
The reply should be a number, written without any unit.

Q: Item under review: O=C(N/N=C/c1ccc(O)cc1)c1ccccc1C(=O)c1ccccc1 . Reported -logMIC?
Ans: 1.92

Q: Now give it for COc1cc(/C=N/NC(=O)c2ccccc2C(=O)c2ccccc2)ccc1O too.
Ans: 1.4

Q: Now give it for O=C(N/N=C/c1ccccc1O)c1ccc(Cl)cc1 too.
Ans: 1

Q: Now give it for O=C(N/N=C/c1ccc(Cl)cc1)c1ccccc1C(=O)c1ccccc1 too.
Ans: 1.3

Q: Now give it for COc1cc(/C=N/NC(=O)c2ccc(Cl)cc2)ccc1O too.
Ans: 1.69

Q: Now give it for O=C(N/N=C/c1c(O)ccc2ccccc12)c1ccc(Cl)cc1 too.
Ans: 2

Q: Now give it for O=C(N/N=C/c1ccccc1O)c1ccccc1C(=O)c1ccccc1 too.
Ans: 1.53

Q: Now give it for O=C(N/N=C/c1ccc([N+](=O)[O-])cc1)c1ccccc1C(=O)c1ccccc1 too.
Ans: 1.4

###

System: Staphylococcus epidermidis
test details: Antibacterial activity against Staphylococcus epidermidis by agar well diffusion method
Format: functional
experimental endpoint: -logMIC
The reply should be a number, written without any unit.

[[record]]
smiles_record = "COc1cc(/C=N/NC(=O)c2ccccc2C(=O)c2ccccc2)ccc1O"
experimental_endpoint = "-logMIC"
value_observed = 2.3

[[record]]
smiles_record = "O=C(N/N=C/c1ccccc1O)c1ccccc1C(=O)c1ccccc1"
experimental_endpoint = "-logMIC"
value_observed = 1.53

[[record]]
smiles_record = "Cc1ccc(/C=N/NC(=O)c2ccccc2C(=O)c2ccccc2)cc1"
experimental_endpoint = "-logMIC"
value_observed = 2.3

[[record]]
smiles_record = "O=C(N/N=C/c1ccc([N+](=O)[O-])cc1)c1ccccc1C(=O)c1ccccc1"
experimental_endpoint = "-logMIC"
value_observed = 1.47

[[record]]
smiles_record = "Cc1ccc(/C=N/NC(=O)c2ccc(Cl)cc2)cc1"
experimental_endpoint = "-logMIC"
value_observed = 2.3

[[record]]
smiles_record = "COc1cc(/C=N/NC(=O)c2ccc(Cl)cc2)ccc1O"
experimental_endpoint = "-logMIC"
value_observed = 2

[[record]]
smiles_record = "O=C(N/N=C/c1ccc(O)cc1)c1ccccc1C(=O)c1ccccc1"
experimental_endpoint = "-logMIC"
value_observed = 1.92

[[record]]
smiles_record = "O=C(N/N=C/c1ccccc1[N+](=O)[O-])c1ccccc1C(=O)c1ccccc1"
experimental_endpoint = "-logMIC"
value_observed = 1.47


Q: Item under review: O=C(N/N=C/c1cccc([N+](=O)[O-])c1)c1ccc(Cl)cc1 . Reported -logMIC?
Ans: 1.69

Q: Now give it for O=C(N/N=C/c1ccccc1O)c1ccc(Cl)cc1 too.
Ans: 1.53

Q: Now give it for O=C(N/N=C/c1ccc(Cl)cc1)c1ccccc1C(=O)c1ccccc1 too.
Ans: 1.69

Q: Now give it for O=C(N/N=C/c1ccccc1)c1ccccc1C(=O)c1ccccc1 too.
Ans: 1.69

Q: Now give it for O=C(N/N=C/c1c(O)ccc2ccccc12)c1ccc(Cl)cc1 too.
Ans: 2
